- Assayed system: human serum albumin (HSA) (Homo sapiens)
- Sequence (P02768 25-609): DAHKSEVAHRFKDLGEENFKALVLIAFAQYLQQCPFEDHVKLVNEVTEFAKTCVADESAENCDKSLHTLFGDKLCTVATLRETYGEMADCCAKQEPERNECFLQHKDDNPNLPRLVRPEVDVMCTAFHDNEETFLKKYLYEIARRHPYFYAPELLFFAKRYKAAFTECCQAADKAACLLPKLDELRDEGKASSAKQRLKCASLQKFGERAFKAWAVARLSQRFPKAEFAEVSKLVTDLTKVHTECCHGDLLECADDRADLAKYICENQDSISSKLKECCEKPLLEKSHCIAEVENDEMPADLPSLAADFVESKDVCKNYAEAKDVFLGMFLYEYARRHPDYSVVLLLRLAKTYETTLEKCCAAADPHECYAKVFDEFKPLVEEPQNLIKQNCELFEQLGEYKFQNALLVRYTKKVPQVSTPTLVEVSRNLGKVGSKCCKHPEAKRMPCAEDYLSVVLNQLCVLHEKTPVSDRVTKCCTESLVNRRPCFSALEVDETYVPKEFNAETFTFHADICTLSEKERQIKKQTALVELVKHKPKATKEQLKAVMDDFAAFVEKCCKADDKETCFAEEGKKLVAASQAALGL
- Assay explanation: Fluorescence emission spectrum (quenching) of HSA with carbamate pesticides
- Format: binding
- Conditions used: 310 K
Entry flag: Satisfied if ΔG^0 reaches -4 kcal/mol; Not satisfied if it does not.

[[record]]
molecule = "CCSCc1ccccc1OC(=O)NC [Ethiofencarb, ethiofencarb]"
group_label = "Not satisfied"

[[record]]
molecule = "CNC(=O)Oc1cc(C)cc(C(C)C)c1 [Promecarb, promecarb]"
group_label = "Not satisfied"

[[record]]
molecule = "CNC(=O)O/N=C(\\C[S+](C)[O-])C(C)(C)C (stereo not drawn) [Thiofanox-sulfoxide]"
group_label = "Not satisfied"

[[record]]
molecule = "CNC(=O)Oc1cccc(C)c1 [Metolcarb, metolcarb]"
group_label = "Satisfied"

[[record]]
molecule = "CNC(=O)O/N=C(\\CS(C)(=O)=O)C(C)(C)C [Thiofanox-sulfone, thiofanox sulfone]"
group_label = "Not satisfied"

[[record]]
molecule = "CNC(=O)Oc1cccc2c1OC(C)(C)C2 [Carbofuran, carbofuran]"
group_label = "Not satisfied"


Hey, just so you know, these numbers are from patent US12385839B2.
